src = ChEMBL document CHEMBL4020738

# SYSTEM UNDER TEST: Cholinesterase (Equus caballus, UniProt P81908)
# Sequence (P81908 whole entry): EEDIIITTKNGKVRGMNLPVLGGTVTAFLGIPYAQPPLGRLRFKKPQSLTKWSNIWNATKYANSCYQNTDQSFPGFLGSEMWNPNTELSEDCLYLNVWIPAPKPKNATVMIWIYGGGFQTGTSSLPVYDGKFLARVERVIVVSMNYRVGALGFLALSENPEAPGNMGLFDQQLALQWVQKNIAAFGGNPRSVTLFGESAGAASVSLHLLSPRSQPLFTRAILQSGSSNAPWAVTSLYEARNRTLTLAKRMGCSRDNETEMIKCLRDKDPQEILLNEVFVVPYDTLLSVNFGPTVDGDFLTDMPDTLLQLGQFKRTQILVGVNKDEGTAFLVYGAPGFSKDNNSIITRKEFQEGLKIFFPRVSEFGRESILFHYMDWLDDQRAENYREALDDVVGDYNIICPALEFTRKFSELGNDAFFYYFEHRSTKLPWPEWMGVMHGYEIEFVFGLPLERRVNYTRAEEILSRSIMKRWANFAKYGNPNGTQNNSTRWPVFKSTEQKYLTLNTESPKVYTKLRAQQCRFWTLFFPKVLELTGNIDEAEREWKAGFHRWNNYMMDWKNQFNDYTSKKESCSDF
# METHOD DESCRIPTION: Inhibition of horse serum BChE using butyrylcholine chloride as substrate preincubated for 15 mins followed by substrate addition by spectrophotometric method
OBSERVABLE: IC50 (µM)
Answers are plain numbers, in µM.

Illustrative cases are given below, each with its answer.
C=C1C[C@]23C[C@@H]4[C@@H]5[C@@]6(C)CC(=O)C[C@]57C([C@@H]2[C@@H](O)[C@H]1[C@@H](O)[C@@H]37)N4C6; 15.6
CCN1C[C@]2(C)CC[C@H](OC)[C@]34C1[C@@](C)([C@@H](OC)[C@H]23)[C@@]1(O)CC[C@H]2C[C@@H]4C1(O)C(=O)O2; 8.6
CCN1C[C@]2(C)CC[C@H](OC)[C@]34C1[C@H]([C@@H](O)[C@H]23)[C@@]1(O)CC[C@H]2C[C@@H]4[C@@H]1C(=O)O2; 10.4

Continue with the next molecule.
Q) What measured IC50 goes with C=C1[C@H]2CC[C@@]3(C(=O)C[C@@H]4[C@@]5(C)CCC[C@@]4(CN(CCO)C5)[C@@H]3C2)[C@@H]1O ?
A) 18.1

---

# SYSTEM UNDER TEST: Cholinesterase (Equus caballus, UniProt P81908)
# METHOD DESCRIPTION: Inhibition of horse serum BChE using butyrylcholine chloride as substrate preincubated for 15 mins followed by substrate addition by spectrophotometric method
Provide the recorded IC50 for the entries that follow.
Numbers only, in µM.

Illustrative cases are given below, each with its answer.
C=C1[C@H]2CC[C@@]3(CC[C@@H]4[C@]5(C)CCC[C@]4(CN4CCO[C@@H]45)[C@@H]3C2)[C@@H]1O; 14.7
C=C1CC23C[C@H]4[C@@H]5[C@@]6(C)CC[C@H](O)[C@]57C([C@@H]2[C@@H](O)[C@H]1[C@@H](O)[C@@H]37)N4C6; 9.3
C=C1[C@H]2CC[C@@]3(CC[C@H]4[C@]5(CCC[C@]4(C)C4OCCN4C5)[C@@H]3C2)[C@@H]1O (some centres undefined); 13.1

Continue with the next molecule.
Q) What measured IC50 goes with C=C1[C@H]2C[C@H]3C4N5C[C@]6(C)CCC[C@@]47[C@@H]6[C@@]5(O)CC3([C@@H]1O)[C@@H]7C2 ?
A) 16.2

---

Provide the recorded inhibition for the entries that follow.
# SYSTEM UNDER TEST: UniProtKB P81908
# METHOD DESCRIPTION: Inhibition of horse serum BChE at 0.1 mM using butyrylcholine chloride as substrate preincubated for 15 mins followed by substrate addition by spectrophotometric method relative to control

CCN1C[C@]2(C)CC[C@H](OC)[C@]34C1[C@H]([C@@H](O)[C@H]23)[C@@]1(O)CC[C@H]2C[C@@H]4[C@@H]1C(=O)O2; > 50%
C=C1[C@H]2CC[C@@]3(CC[C@H]4[C@]5(CCC[C@]4(C)C4OCCN4C5)[C@@H]3C2)[C@@H]1O (stereo partly drawn); > 50%
CCN1C[C@]2(C)CC[C@H](OC)[C@]34C1[C@@](C)([C@@H](OC)[C@H]23)[C@@]1(O)CC[C@H]2C[C@@H]4C1(O)C(=O)O2; > 50%
C=C1[C@H]2C[C@H]3C4N5C[C@]6(C)CCC[C@@]47[C@@H]6[C@@]5(O)CC3([C@@H]1O)[C@@H]7C2; > 50%
C=C1[C@H]2CC[C@@]3(CC[C@@H]4[C@]5(C)CCC[C@]4(CN4CCO[C@@H]45)[C@@H]3C2)[C@@H]1O; > 50%
C=C1[C@H]2CC[C@@]3(C(=O)C[C@@H]4[C@@]5(C)CCC[C@@]4(CN(CCO)C5)[C@@H]3C2)[C@@H]1O; > 50%
C=C1C[C@]23C[C@@H]4[C@@H]5[C@@]6(C)CC(=O)C[C@]57C([C@@H]2[C@@H](O)[C@H]1[C@@H](O)[C@@H]37)N4C6; > 50%

Continue with the next molecule.
Q) What measured inhibition goes with C=C1CC23C[C@H]4[C@@H]5[C@@]6(C)CC[C@H](O)[C@]57C([C@@H]2[C@@H](O)[C@H]1[C@@H](O)[C@@H]37)N4C6 ?
A) > 50%
